The origin of these recorded values is patent US20110301146A1.

Consider the following IC50 values measured on GSK-3beta (Homo sapiens).
Sequence (P49841 whole entry): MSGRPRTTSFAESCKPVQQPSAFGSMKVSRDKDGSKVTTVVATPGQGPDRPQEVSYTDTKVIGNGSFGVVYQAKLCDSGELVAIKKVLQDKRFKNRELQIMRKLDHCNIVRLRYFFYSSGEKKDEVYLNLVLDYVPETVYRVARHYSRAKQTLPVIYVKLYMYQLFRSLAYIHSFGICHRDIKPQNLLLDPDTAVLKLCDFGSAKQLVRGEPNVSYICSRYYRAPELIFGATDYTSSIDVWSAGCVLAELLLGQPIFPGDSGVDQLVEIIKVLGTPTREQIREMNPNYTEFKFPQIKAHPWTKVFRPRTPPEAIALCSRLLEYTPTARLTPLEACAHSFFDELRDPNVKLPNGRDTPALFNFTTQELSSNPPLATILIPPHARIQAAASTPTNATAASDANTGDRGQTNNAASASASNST
Recorded endpoint: IC50 (nM)

Molecule | Numeric readout
O=C(c1ccc(O)c2[nH]c(-c3cccs3)nc12)N1CCNCC1 [Example 21] | 22000
N[C@H]1CC[C@H](NC(=O)c2ccc(O)c3[nH]c(-c4cccs4)nc23)CC1 [Example 47] | 51
O=C(NCC1CNC1)c1ccc(O)c2[nH]c(C3CC3)nc12 [Example 13] | 140
O=C(NCC1CCCNC1)c1ccc(O)c2[nH]c(C3CC4CCC3C4)nc12 (centres unmarked) [Example 48] | 68
O=C(N[C@H]1CCCNC1)c1ccc(O)c2[nH]c(-c3ccccc3)nc12 [Example 17] | 120
